Reported values of melting point for individual entries

As a guide, the following entries are already answered.
INSERT INTO results (item_smiles, test_result) VALUES
  ('CO/N=C(\C(=O)OC)c1ccccc1CON=C(C)c1cc(C(F)(F)F)cc(C(F)(F)F)c1', '76 to 78 °C'),
  ('CO/N=C(\C(=O)OC)c1ccccc1CON=C(C)c1ccc(F)cc1', '89 to 90 °C'),
  ('CO/N=C(\C(=O)OC)c1ccccc1CON=C(C)c1ccco1', '95 to 97 °C'),
  ('CO/N=C(\C(=O)OC)c1ccccc1CON=C(C)c1ccccn1', '82 to 84 °C');

Then this compound:
Exercise: Please report the recorded melting point for CO/N=C(\C(=O)OC)c1ccccc1CON=C(C)c1cc2ccccc2o1 .
Key: 110 to 112 °C

Recorded values, source patent US6355634B1.
